Documented scaled log2 fold change across a set of variants
B1: library; numbered along this chain (parent)
chain: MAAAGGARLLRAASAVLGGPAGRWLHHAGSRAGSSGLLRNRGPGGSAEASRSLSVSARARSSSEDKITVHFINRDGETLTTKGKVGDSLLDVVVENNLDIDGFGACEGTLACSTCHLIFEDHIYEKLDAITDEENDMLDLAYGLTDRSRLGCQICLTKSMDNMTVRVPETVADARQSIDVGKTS

Variants of: B1
assay name: scaled log2 fold change in cell abundance, elesclomol vs control (0 = silent mean, 1 = nonsense mean) (scaled log2 ratio); higher = higher viability under elesclomol (loss of FDX1 cuproptosis function);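 further: variant abundance is its share of total variant reads in each endpoint sample, from next-generation sequencing of the integrated ORF PCR-amplified out of genomic DNA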
condition: with HEK293T FDX1 KO; elesclomol 40 nM; glucose 10 mM; 11 days

Below, each entry is followed by its recorded scaled log2 fold change result.
>>> df
   variant_descriptor             readout_kind  assay_result
0                T81Y  scaled log2 fold change       -0.0662
1               E133G  scaled log2 fold change        -0.168

// scaled log2 fold change lookup, variant = `G5M` , result: -0.441

// scaled log2 fold change lookup, variant = `T68E` , result: -0.497
